- Target Or System: Cysteinyl leukotriene receptor 1 (Cavia porcellus, UniProt Q2NNR5)
- Sequence (Q2NNR5 whole entry): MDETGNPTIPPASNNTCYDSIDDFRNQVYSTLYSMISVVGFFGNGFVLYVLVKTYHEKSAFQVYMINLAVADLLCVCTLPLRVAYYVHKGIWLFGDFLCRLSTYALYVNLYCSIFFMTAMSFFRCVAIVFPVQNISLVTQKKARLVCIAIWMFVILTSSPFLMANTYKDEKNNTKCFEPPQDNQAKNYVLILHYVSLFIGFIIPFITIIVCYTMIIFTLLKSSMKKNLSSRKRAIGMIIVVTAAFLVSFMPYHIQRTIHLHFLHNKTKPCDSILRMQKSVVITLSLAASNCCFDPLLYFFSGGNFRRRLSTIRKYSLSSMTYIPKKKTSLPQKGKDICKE
- Assay Notes: Inhibition of [3H]LTD4 binding to guinea-pig lung membranes
- Format: tissue-based, Membrane
The following compounds are shown together with reported Ki values.
Response body: numeric value in µM, unit text excluded.

O=C(O)CCC[C@H](O)[C@@H](/C=C\CCCCCCCCCCCCCc1ccccc1)Sc1ccc(C(=O)O)cc1 ... 5.01
O=C(O)CCC[C@H](O)[C@@H](/C=C\CCCCCc1ccccc1)Sc1ccc(C(=O)O)cc1 ... 20
O=C(O)CCC[C@H](O)[C@@H](/C=C\CCCCCCCCOc1ccccc1)Sc1ccc(C(=O)O)cc1 ... 0.631

Okay, next one:
Bench note, Cysteinyl leukotriene receptor 1 (Cavia porcellus, UniProt Q2NNR5): `O=C(O)CCC[C@H](O)[C@@H](/C=C\CCCCCCCCCOc1ccccc1)Sc1ccc(C(=O)O)cc1` , Ki reads 0.316

* * *

- Target Or System: Cysteinyl leukotriene receptor 1 (Cavia porcellus)
- Assay Notes: Compound was evaluated for its antagonist affinity at 10 (uM) on guinea-pig trachea rings against LTD4 receptor
- Type: functional, tissue-based
The following compounds are shown together with reported pKB values.
Please reply with the value in numeric form only.

O=C(O)CCC[C@H](O)[C@@H](/C=C/c1cccc(OCCCCOc2ccccc2)c1)Sc1ccc(C(=O)O)cc1 ... 6.8

Bench note, Cysteinyl leukotriene receptor 1 (Cavia porcellus): `O=C(O)CCC[C@H](O)[C@@H](/C=C\c1ccc(OCCCCOc2ccccc2)cc1)Sc1ccc(C(=O)O)cc1` , pKB reads 6.5

* * *

The following molecules are shown together with reported pKB values.
- Target Or System: Cysteinyl leukotriene receptor 1 (Cavia porcellus) (UniProt Q2NNR5)
- Assay Notes: Compound was evaluated for its antagonist affinity at 10 (uM) on guinea-pig trachea rings against LTD4 receptor
- Assay type: functional, tissue-based

Answered cases to consult:
O=C(O)CCC[C@H](O)[C@@H](/C=C\Cc1ccc(OCCCCOc2ccccc2)cc1)Sc1ccc(C(=O)O)cc1 ... 8.3
O=C(O)CCC[C@H](O)[C@@H](/C=C\Cc1ccccc1OCCCOc1ccccc1)Sc1ccc(C(=O)O)cc1 ... < 5
O=C(O)CCC[C@H](O)[C@@H](/C=C\c1cccc(OCCCCOc2ccccc2)c1)Sc1ccc(C(=O)O)cc1 ... < 5

Okay, next one:
Entry under test: `O=C(O)CCC[C@H](O)[C@@H](/C=C\c1ccccc1OCCCCOc1ccccc1)Sc1ccc(C(=O)O)cc1` . Its pKB was < 5

* * *

- Target Or System: Cysteinyl leukotriene receptor 1 (Cavia porcellus, UniProt Q2NNR5)
- Sequence (Q2NNR5 whole entry): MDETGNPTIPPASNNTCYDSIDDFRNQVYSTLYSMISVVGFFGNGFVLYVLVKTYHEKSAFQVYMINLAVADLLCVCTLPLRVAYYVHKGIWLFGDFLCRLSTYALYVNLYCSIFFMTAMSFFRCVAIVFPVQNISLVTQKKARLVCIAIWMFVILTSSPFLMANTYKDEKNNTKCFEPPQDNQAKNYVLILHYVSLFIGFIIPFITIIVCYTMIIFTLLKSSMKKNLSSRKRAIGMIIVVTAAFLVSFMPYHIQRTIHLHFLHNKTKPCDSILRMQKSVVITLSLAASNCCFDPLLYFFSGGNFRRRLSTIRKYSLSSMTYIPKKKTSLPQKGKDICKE
- Assay Notes: Compound was evaluated for its binding affinity on guinea-pig ileum
- Format: tissue-based
Readout Kind: pKi
The quantity pKi is defined as the negative base-10 logarithm of the molar concentration.

CCCCC/C=C\C\C=C/C=C/C=C/[C@@H](Sc1ccccc1C(=O)O)[C@@H](O)CCCC(=O)O ... 7.60
CCCCC/C=C\C\C=C/C=C/C=C/[C@@H](Sc1ccc(C(=O)O)cc1)[C@@H](O)CCCC(=O)O ... 7.00
CCCCC/C=C\C\C=C/C=C/C=C/[C@@H](Sc1cccc(C(=O)O)c1)[C@@H](O)CCCC(=O)O ... 8.70

Okay, next one:
Entry under test: `CCCCC/C=C\C\C=C/C=C/C=C/[C@@H](SCC(=O)O)[C@@H](O)CCCC(=O)O` . Its pKi was 8.70
